system_tested: T1, 4H2754-AA
T1 chain: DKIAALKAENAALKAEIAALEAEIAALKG
run_description: two-hybrid library CCmax;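 further: natural log of median RNA to DNA barcode read ratio; higher means stronger binding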
experimental_parameters: mean of both orientations
quantity_name: interaction score

| binder | quantity_name | val |
| --- | --- | --- |
| DENAALEAKIAALEAKIAALKAENAALKG [4H1324-AA] | interaction score | -1.3 |
| DKIAALEAENAALEAEIAALKAKIAALKG [4H2190-AA] | interaction score | 2.3 |
| DKIAALKAEIAALKAENAALEAEIAALKG [4H2642-AA] | interaction score | -1.08 |
| DKIAALEAEIAALEAENAALKAKIAALKG [4H2078-AA] | interaction score | 0.637 |
| DKIAALKAENAALEAKIAALKAEIAALEG [4H2729-AA] | interaction score | 2.26 |
| DENAALEAEIAALKAKIAALKAKNAALEG [4H1135-AA] | interaction score | -0.686 |
| DENAALEAENAALEAEIAALEAEIAALEG [4H1153-AA] | interaction score | -0.638 |

Source of measurements: paper PMC10397247
